# assayProcedure: reversal of MRP1-mediated doxorubicin resistance, pilot screen, H69AR cells, doxorubicin co-treatment (AID 601)
# details: H69AR cells + 2 uM doxorubicin, CellTiter-Glo, 72 h; measured here: viability with 2 uM doxorubicin; at 10 µM; stronger effect = lower value
Please go through the items and note down their viability.
Provide the reading as a plain figure in %.

## Task Look up viability of CCOC(=O)N1CCN(C(=O)CSc2ncnc3ccccc23)CC1 and report it.
## Result 74.1

## Task Look up viability of CCNC(=O)N(C)c1nncnc1C(=O)NC and report it.
## Result 89.6

## Task Look up viability of NC(=O)CSc1nnc(-c2cc3ccccc3o2)n1Cc1ccccc1 and report it.
## Result 91.8

## Task Look up viability of COc1ccc(Cn2nnnc2C(c2cccs2)N2CCOCC2)cc1 (centres undefined) and report it.
## Result 111

## Task Look up viability of C=CCn1c(SCC2=C(C(=O)OCC)C(C)NC(=O)N2)nnc1C1CCCCC1 (centres undefined) and report it.
## Result 96.2

## Task Look up viability of C=CCOC(=O)C(C#N)c1nc2ccccc2nc1N1CCN(Cc2ccccc2)CC1 (centres undefined) and report it.
## Result 93.6

## Task Look up viability of COc1ccccc1N1CC(O)=C(c2nc3ccccc3c(=O)[nH]2)C1=N and report it.
## Result 85.7

## Task Look up viability of O=C(O)CCC(=O)c1c[nH]c2ccccc12 and report it.
## Result 101

## Task Look up viability of CC(=O)Nc1ccc(Cl)c(C(N)=O)c1 and report it.
## Result 86.8

## Task Look up viability of COc1ccc(S(=O)(=O)NCCC(=O)NC2CCCCCCC2)cc1 and report it.
## Result 86.3

## Task Look up viability of CCOC(=O)c1ccc(NC(=O)NC(C)C2CCCO2)cc1 (centres undefined) and report it.
## Result 90.4

## Task Look up viability of C=CCOC(=O)CCC(=O)Nc1cc(OC)nc(OC)n1 and report it.
## Result 90.1

## Task Look up viability of Cc1nc(SCC(=O)Nc2ccccc2C(F)(F)F)c2c(=O)n(C)c(=O)n(C)c2n1 and report it.
## Result 76.3

## Task Look up viability of Cn1c(=O)cc(SCC(=O)N2CCOCC2)c2ccc(Cl)cc21 and report it.
## Result 83.3

## Task Look up viability of COc1ccc(S(=O)(=O)N(C)c2ccc(C(=O)N3CCOCC3)cc2)cc1 and report it.
## Result 91.5

## Task Look up viability of CCSc1ncc(C#N)c(=O)[nH]1 and report it.
## Result 97.6

## Task Look up viability of COc1ccc(OC)c(C2C(C(=O)Nc3cccnc3)=C(C)NC3=C2C(=O)CCC3)c1 (centres undefined) and report it.
## Result 83.3

## Task Look up viability of CCOc1cc(CN2CCN(C(=O)c3ccco3)CC2)ccc1OC and report it.
## Result 87.9

## Task Look up viability of O=C(O)c1cccc(CN2C(=O)SC(Nc3ccccc3)C2=O)c1 (centres undefined) and report it.
## Result 94

## Task Look up viability of O=C(Cn1cnc2c(oc3ccccc32)c1=O)N1CCN(c2ccccc2)CC1 and report it.
## Result 87.7

## Task Look up viability of FC(F)(F)c1nnc2ccc(NCn3nnc4ccccc43)nn12 and report it.
## Result 88

## Task Look up viability of FC(F)(F)c1cc(-c2ccco2)nc(N2CCOCC2)n1 and report it.
## Result 73.8

## Task Look up viability of Cc1ccc2cc(C#N)c(N3CCCC3)nc2c1C and report it.
## Result 78.5

## Task Look up viability of Cc1ncc(CSc2nc3ccccc3[nH]2)c(N)n1 and report it.
## Result 87.5

====

# assayProcedure: 384-well plate pilot, post-Golgi transport modulator project, inhibition of yeast transport mutant growth (AID 636)
# details: absorbance 615 nm, about 18 h, stronger effect = higher value
Please go through the items and note down their inhibition.
Provide the reading as a plain figure in %.

## Task Look up inhibition of CCOC(=O)C1CCCN(c2cc(=O)n(Cc3ccc(F)cc3)c(=O)[nH]2)C1 (centres undefined) and report it.
## Result -4.67

## Task Look up inhibition of CCN1C(=O)/C(=C2\C=Cc3ccccc3N2CC)OC1=S and report it.
## Result -4.23

## Task Look up inhibition of COc1ccc(CC(=O)N2CCOCC2)cc1OC and report it.
## Result 0.13

## Task Look up inhibition of O=C1OCCC1Sc1ncnc2sc3c(c12)CCC3 (centres undefined) and report it.
## Result -4.67

## Task Look up inhibition of CC(C)CNC(=O)C1C2C=CC(C2)C1C(=O)O (centres undefined) and report it.
## Result -1.33

## Task Look up inhibition of O=C(NCc1ccccn1)c1cccs1 and report it.
## Result -7.43

## Task Look up inhibition of COc1ccc(C(NC(=O)C(C)(C)C)NC(=O)C(C)(C)C)cc1 and report it.
## Result -5.32

## Task Look up inhibition of COc1ccc(Cl)cc1S(=O)(=O)n1cnc2ccccc21 and report it.
## Result -4.59

## Task Look up inhibition of CC1N=C2c3ccccc3N=C(SCc3cc(=O)n4cc(Cl)ccc4n3)N2C1=O (centres undefined) and report it.
## Result -4.87

## Task Look up inhibition of c1ccc(Cc2nnc3n2CCCCC3)cc1 and report it.
## Result -7.2

## Task Look up inhibition of O=C(NCc1cccnc1)C1c2ccccc2C(=O)N1Cc1ccco1 (centres undefined) and report it.
## Result -1.56

## Task Look up inhibition of CCOc1ccc(NC(=O)CN(C)S(=O)(=O)c2cccs2)cc1 and report it.
## Result -3.2

## Task Look up inhibition of [O-][n+]1c2ccc3nonc3c2nn1-c1ccccc1Cl and report it.
## Result -0.4

## Task Look up inhibition of CCOC(=O)N1CCN(c2nc(-c3ccc(Cl)cc3)cs2)CC1 and report it.
## Result -4.23

## Task Look up inhibition of CN1C(=S)SC(C)(NO)C1(C)C (centres undefined) and report it.
## Result -0.27

## Task Look up inhibition of CC(=O)c1ccc(OCC(O)CN2CC(C)OC(C)C2)cc1 (centres undefined) and report it.
## Result -5.19

## Task Look up inhibition of O=C(NCC1COc2ccccc2O1)c1ccccc1 (centres undefined) and report it.
## Result -4.27

## Task Look up inhibition of CC1=C(C(=O)OC2CCCCC2)C(c2cccnc2)n2ncnc2N1 (centres undefined) and report it.
## Result -6.58

## Task Look up inhibition of COc1ccccc1Oc1coc2c(CN3CCN(C)CC3)c(O)ccc2c1=O and report it.
## Result -1.82

## Task Look up inhibition of O=C(CN1C(=O)C2CC=C(Cl)CC2C1=O)Nc1ccc(C(=O)O)cc1 (centres undefined) and report it.
## Result -3.55

## Task Look up inhibition of CC1(C)CNC(=O)c2sc(N3CCOCC3)nc2C1 and report it.
## Result -3.82

## Task Look up inhibition of Cc1noc(C)c1COc1cccc(C(=O)Nc2ccc(C#N)cc2)c1 and report it.
## Result -2.99

## Task Look up inhibition of CCOC(=O)c1ccc(NS(=O)(=O)c2cccc3nsnc23)cc1 and report it.
## Result 1.2

## Task Look up inhibition of COc1ccc(C2=NO[C@@H]3C(=O)N(c4cccc(C)c4C)C(=O)[C@H]23)cc1OC and report it.
## Result 4.29

====

# system: Receptor tyrosine-protein kinase erbB-2 (Homo sapiens) (UniProt P04626)
# Sequence (P04626 whole entry, looked up): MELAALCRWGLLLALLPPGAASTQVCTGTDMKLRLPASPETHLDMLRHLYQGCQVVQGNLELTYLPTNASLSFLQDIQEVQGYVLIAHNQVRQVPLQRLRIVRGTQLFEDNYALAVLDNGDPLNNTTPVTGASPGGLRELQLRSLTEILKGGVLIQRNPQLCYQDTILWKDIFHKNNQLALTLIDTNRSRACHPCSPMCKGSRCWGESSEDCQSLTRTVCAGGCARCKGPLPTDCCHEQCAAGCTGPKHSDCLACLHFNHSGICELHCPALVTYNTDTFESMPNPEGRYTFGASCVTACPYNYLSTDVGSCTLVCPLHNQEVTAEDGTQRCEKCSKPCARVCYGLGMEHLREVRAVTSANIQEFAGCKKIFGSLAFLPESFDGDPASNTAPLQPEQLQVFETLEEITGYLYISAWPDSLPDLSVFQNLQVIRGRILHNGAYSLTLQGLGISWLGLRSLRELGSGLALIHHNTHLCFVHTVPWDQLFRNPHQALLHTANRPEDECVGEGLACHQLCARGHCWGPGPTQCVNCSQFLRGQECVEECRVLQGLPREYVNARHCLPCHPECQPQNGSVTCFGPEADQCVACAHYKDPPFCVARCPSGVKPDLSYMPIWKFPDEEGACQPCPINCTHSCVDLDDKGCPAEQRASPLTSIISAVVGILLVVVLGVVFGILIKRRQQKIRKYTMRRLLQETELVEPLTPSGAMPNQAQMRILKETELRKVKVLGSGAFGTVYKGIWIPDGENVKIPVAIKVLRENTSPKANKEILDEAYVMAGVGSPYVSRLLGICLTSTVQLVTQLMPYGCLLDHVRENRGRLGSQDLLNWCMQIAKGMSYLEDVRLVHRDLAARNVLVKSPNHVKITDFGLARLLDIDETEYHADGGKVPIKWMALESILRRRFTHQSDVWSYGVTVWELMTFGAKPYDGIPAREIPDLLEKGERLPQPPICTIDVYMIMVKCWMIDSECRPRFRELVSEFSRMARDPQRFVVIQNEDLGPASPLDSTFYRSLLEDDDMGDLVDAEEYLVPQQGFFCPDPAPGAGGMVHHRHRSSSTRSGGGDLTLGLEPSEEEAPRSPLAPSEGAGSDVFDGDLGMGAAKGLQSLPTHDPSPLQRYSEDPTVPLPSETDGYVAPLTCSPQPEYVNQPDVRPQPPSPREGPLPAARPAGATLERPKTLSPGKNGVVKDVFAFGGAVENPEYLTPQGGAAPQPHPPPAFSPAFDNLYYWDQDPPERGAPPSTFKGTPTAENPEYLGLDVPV
# assayProcedure: reducers of endogenous Her2 protein level, primary screen, SKBR3 breast tumor cells, AlphaScreen, ATP viability (AID 461);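 note: lower value means less Her2 protein in the cells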
# details: 18-24 h, at 10 µM, stronger effect = lower value
propertyName: Her2 level (%)
Provide the reading as a plain figure in %.

## Task Look up Her2 level of O=C(NC1CCCCC1)C1CC(O)CN1C(=O)OCc1ccccc1 (stereo unspecified) and report it.
## Result 93

## Task Look up Her2 level of Cc1nc2scc(-c3cccs3)c2c(=O)n1-n1cccc1 and report it.
## Result 107

## Task Look up Her2 level of Cc1cc(Nc2ccc(C(=O)O)cc2)n2nc(C)nc2n1 and report it.
## Result 96.5

## Task Look up Her2 level of CCCC(NC(=O)c1ccccc1)c1nc2ccccc2n1Cc1ccc(C(=O)OC)o1 (stereo unspecified) and report it.
## Result 105

## Task Look up Her2 level of O=C(O)CCC1(C(=O)O)OCCc2ccccc21 (stereo unspecified) and report it.
## Result 83

## Task Look up Her2 level of Cc1cc(-c2ccc(F)cc2)nc2cc(C(N)=O)nn12 and report it.
## Result 104
